Biological target: T1, Cynomolgus TNFR2-His (Sino 90102-C08H) (cynomolgus monkey, UniProt A0A2K5VET2 132-366)
T1 construct: Bought protein; also called cynomolgus monkey TNFR2; recombinant cynomolgus monkey TNFR2 protein; not shown: His tag
T1 sequence: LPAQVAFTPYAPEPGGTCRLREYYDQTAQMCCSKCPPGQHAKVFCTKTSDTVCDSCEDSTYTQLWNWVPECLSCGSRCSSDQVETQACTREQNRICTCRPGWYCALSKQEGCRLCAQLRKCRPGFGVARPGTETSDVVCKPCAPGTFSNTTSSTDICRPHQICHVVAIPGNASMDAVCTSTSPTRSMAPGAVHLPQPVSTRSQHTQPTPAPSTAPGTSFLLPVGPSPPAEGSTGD
Assay: SPR (Biacore T200), antibody captured on Protein A chip
observable: Kd (nM)
Answer with a number only, understood to be in nM.

| binder | Kd, nM |
| --- | --- |
| 219-Hu2 (antibody, V domains shown, also called VH4 + VL5) VH: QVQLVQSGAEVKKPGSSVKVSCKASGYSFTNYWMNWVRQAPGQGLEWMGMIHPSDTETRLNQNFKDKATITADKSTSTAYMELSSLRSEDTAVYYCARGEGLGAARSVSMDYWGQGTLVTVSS VL: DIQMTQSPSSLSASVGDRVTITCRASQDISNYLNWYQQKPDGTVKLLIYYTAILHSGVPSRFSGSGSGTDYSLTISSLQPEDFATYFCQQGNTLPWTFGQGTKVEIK | 0.681 |
| 219-Hu4 (antibody, V domains shown, also called VH6 + VL5) VH: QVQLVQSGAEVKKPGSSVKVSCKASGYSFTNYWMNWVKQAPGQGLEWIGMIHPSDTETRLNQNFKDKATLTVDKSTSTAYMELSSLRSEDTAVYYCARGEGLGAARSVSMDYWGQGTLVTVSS VL: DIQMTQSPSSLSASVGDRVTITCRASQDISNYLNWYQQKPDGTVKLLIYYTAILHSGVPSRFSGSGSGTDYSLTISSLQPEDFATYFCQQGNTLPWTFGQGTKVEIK | 0.576 |

[in] Entry 219-WT (antibody, V domains shown, Human-murine chimeric wild-type molecule) VH: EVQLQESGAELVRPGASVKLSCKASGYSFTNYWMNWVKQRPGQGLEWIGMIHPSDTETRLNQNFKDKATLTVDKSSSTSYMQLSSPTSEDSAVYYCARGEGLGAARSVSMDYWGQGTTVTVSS VL: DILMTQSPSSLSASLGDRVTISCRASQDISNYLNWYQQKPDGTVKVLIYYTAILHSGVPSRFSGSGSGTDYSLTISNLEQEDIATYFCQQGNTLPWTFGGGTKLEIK has what Kd?
[out] 1.14
